Measured inhibition by item
Measured target: Aldo-keto reductase family 1 member B1 (Rattus norvegicus) (UniProt P07943)
Procedure summary: Compound was tested for percent inhibition at 10 e-4 M against rat lens aldose reductase

{"Molecule": "COc1ccc2c(C)cc(=O)oc2c1", "inhibition (%)": 21}
{"Molecule": "CC(=O)Oc1ccc2c(C)cc(=O)oc2c1", "inhibition (%)": 13}
{"Molecule": "Cc1cc(=O)oc2ccccc12", "inhibition (%)": 19}
{"Molecule": "Cc1cc(=O)oc2cc(Cl)ccc12", "inhibition (%)": 10}
{"Molecule": "Cc1cc(=O)oc2ccc(O)cc12", "inhibition (%)": 22}
{"Molecule": "CCc1ccc2c(C)cc(=O)oc2c1", "inhibition (%)": 16}

---

Measured target: Aldo-keto reductase family 1 member B1 (Rattus norvegicus)
Procedure summary: Compound was tested for inhibitory concentration against rat lens aldose reductase (uncompetitive inhibition type)
The threshold is 4000 nM. Values of IC50 beneath it are tagged criterion met; values meeting or exceeding it are tagged criterion not met.

{"Compound": "COc1ccc2c(C(=O)O)cc(=O)oc2c1", "Assigned category": "criterion not met"}
{"Compound": "COC(=O)Cc1cc(=O)oc2cc(O)ccc12", "Assigned category": "criterion not met"}
{"Compound": "O=C(O)Cc1cc(=O)oc2c1ccc1ccccc12", "Assigned category": "criterion met"}
{"Compound": "Cc1cc(=O)oc2c(O)c(O)ccc12 [4-METHYLDAPHNETIN]", "Assigned category": "criterion not met"}
{"Compound": "O=C(O)Cc1cc(=O)oc2ccc3ccccc3c12", "Assigned category": "criterion met"}
{"Compound": "NC(=O)Cc1cc(=O)oc2cc(O)ccc12", "Assigned category": "criterion not met"}
{"Compound": "O=C(O)Cc1cc(=O)oc2cc(Cl)ccc12", "Assigned category": "criterion met"}
{"Compound": "CCc1ccc2c(CC(=O)O)cc(=O)oc2c1", "Assigned category": "criterion met"}
{"Compound": "O=C(O)Cc1cc(=O)oc2ccccc12", "Assigned category": "criterion met"}
{"Compound": "COc1ccc2c(/C=C/C(=O)O)cc(=O)oc2c1", "Assigned category": "criterion not met"}

---

Measured target: Aldo-keto reductase family 1 member B1 (Rattus norvegicus, UniProt P07943)
Procedure summary: Compound was tested for inhibitory concentration against rat lens aldose reductase (noncompetitive inhibition type)
pIC50: −log10 of the molar value.
Measure name: pIC50

{"Compound": "Cc1cc(=O)oc2cc(O)ccc12", "Measure name": "pIC50", "Result": 4.21}
{"Compound": "CC(=O)Oc1ccc2c(CC(=O)O)cc(=O)oc2c1", "Measure name": "pIC50", "Result": 4.21}
{"Compound": "O=C(O)Cc1cccc2ccccc12", "Measure name": "pIC50", "Result": 4.49}
{"Compound": "O=C(O)Cc1cc(=O)oc2cc(O)ccc12", "Measure name": "pIC50", "Result": 6.82}
{"Compound": "Cc1cc(=O)oc2cc(O)cc(O)c12 [5,7-DIHYDROXY-4-METHYLCOUMARIN]", "Measure name": "pIC50", "Result": 4.77}
{"Compound": "O=C(O)Cc1cc(=O)oc2cc(O)cc(O)c12", "Measure name": "pIC50", "Result": 6.59}
{"Compound": "COc1ccc2c(CCC(=O)O)cc(=O)oc2c1", "Measure name": "pIC50", "Result": 5.68}
{"Compound": "COc1ccc2c(CC(=O)O)cc(=O)oc2c1", "Measure name": "pIC50", "Result": 6.43}
